# measurement target: feline FcRn (FCN-F82W3, Acrobiosystems) (feline)
# test summary: SPR Carterra, IgG coupled, pH 6.0
measurement kind: koff (s⁻¹)

- anti-NGF feline IgG1a, Fc variant S428L, Q311V (antibody, part only; not given: Anti-NGF variable domains, not shown: another chain or arm of the molecule; small tags and cut ends) Fc: PPEMLGGPSIFIFPPKPKDTLSISRTPEVTCLVVDLGPDDSDVQITWFVDNTQVYTAKTSPREEQFNSTYRVVSVLPILHVDWLKGKEFKCKVNSKSLPSPIERTISKAKGQPHEPQVYVLPPAQEELSRNKVSVTCLIKSFHPPDIAVEWEITGQPEPENNYRTTPPQLDSDGTYFVYSKLSVDRSHWQRGNTYTCSVLHEALHSHHTQKSLTQSPGK: 0.0107
- anti-NGF feline IgG1a, Fc variant S252Y (antibody, part only; not given: Anti-NGF variable domains, not shown: another chain or arm of the molecule; small tags and cut ends) Fc: PPEMLGGPSIFIFPPKPKDTLYISRTPEVTCLVVDLGPDDSDVQITWFVDNTQVYTAKTSPREEQFNSTYRVVSVLPILHQDWLKGKEFKCKVNSKSLPSPIERTISKAKGQPHEPQVYVLPPAQEELSRNKVSVTCLIKSFHPPDIAVEWEITGQPEPENNYRTTPPQLDSDGTYFVYSKLSVDRSHWQRGNTYTCSVSHEALHSHHTQKSLTQSPGK: 0.0095
- anti-NGF feline IgG1a, Fc variant S428Y, L309V (antibody, part only; not given: Anti-NGF variable domains, not shown: another chain or arm of the molecule; small tags and cut ends) Fc: PPEMLGGPSIFIFPPKPKDTLSISRTPEVTCLVVDLGPDDSDVQITWFVDNTQVYTAKTSPREEQFNSTYRVVSVLPIVHQDWLKGKEFKCKVNSKSLPSPIERTISKAKGQPHEPQVYVLPPAQEELSRNKVSVTCLIKSFHPPDIAVEWEITGQPEPENNYRTTPPQLDSDGTYFVYSKLSVDRSHWQRGNTYTCSVYHEALHSHHTQKSLTQSPGK: 0.0112
- anti-NGF feline IgG1a, Fc variant K326D (antibody, part only; not given: anti-NGF variable domains, not shown: another chain or arm of the molecule; small tags and cut ends) Fc: PPEMLGGPSIFIFPPKPKDTLSISRTPEVTCLVVDLGPDDSDVQITWFVDNTQVYTAKTSPREEQFNSTYRVVSVLPILHQDWLKGKEFKCKVNSDSLPSPIERTISKAKGQPHEPQVYVLPPAQEELSRNKVSVTCLIKSFHPPDIAVEWEITGQPEPENNYRTTPPQLDSDGTYFVYSKLSVDRSHWQRGNTYTCSVSHEALHSHHTQKSLTQSPGK: 0.0584
- anti-NGF feline IgG1a, Fc variant S428Y, S254R (antibody, part only; not given: Anti-NGF variable domains, not shown: another chain or arm of the molecule; small tags and cut ends) Fc: PPEMLGGPSIFIFPPKPKDTLSIRRTPEVTCLVVDLGPDDSDVQITWFVDNTQVYTAKTSPREEQFNSTYRVVSVLPILHQDWLKGKEFKCKVNSKSLPSPIERTISKAKGQPHEPQVYVLPPAQEELSRNKVSVTCLIKSFHPPDIAVEWEITGQPEPENNYRTTPPQLDSDGTYFVYSKLSVDRSHWQRGNTYTCSVYHEALHSHHTQKSLTQSPGK: 0.0265
- anti-NGF feline IgG1a, Fc variant R334D, R301L (antibody, part only; not given: anti-NGF variable domains, light chain, not shown: another chain or arm of the molecule; small tags and cut ends) Fc: PPEMLGGPSIFIFPPKPKDTLSISRTPEVTCLVVDLGPDDSDVQITWFVDNTQVYTAKTSPREEQFNSTYLVVSVLPILHQDWLKGKEFKCKVNSKSLPSPIEDTISKAKGQPHEPQVYVLPPAQEELSRNKVSVTCLIKSFHPPDIAVEWEITGQPEPENNYRTTPPQLDSDGTYFVYSKLSVDRSHWQRGNTYTCSVSHEALHSHHTQKSLTQSPGK: 0.0417
- anti-NGF feline IgG1a, Fc variant T260E, L309E, Q355L (antibody, part only; not given: anti-NGF variable domains, not shown: another chain or arm of the molecule; small tags and cut ends) Fc: PPEMLGGPSIFIFPPKPKDTLSISRTPEVECLVVDLGPDDSDVQITWFVDNTQVYTAKTSPREEQFNSTYRVVSVLPIEHQDWLKGKEFKCKVNSKSLPSPIERTISKAKGQPHEPQVYVLPPALEELSRNKVSVTCLIKSFHPPDIAVEWEITGQPEPENNYRTTPPQLDSDGTYFVYSKLSVDRSHWQRGNTYTCSVSHEALHSHHTQKSLTQSPGK: 0.00977
